Kindly state IC50 for each of the entries shown.
- Protocol Summary: Inhibitory concentration of the against pp60v-src tyrosine kinase obtained from v-src baculovirus-infected insect cells
Just the number in µM, nothing appended.

IC50 recorded for this compound, `Cn1c(SSc2c(C(=O)c3ccc(C(=O)O)cc3)c3ccccc3n2C)c(C(=O)c2ccc(C(=O)O)cc2)c2ccccc21` , is 4

IC50 recorded for this compound, `COC(=O)c1ccccc1NC(=O)c1c(SSc2c(C(=O)Nc3ccccc3C(=O)OC)c3ccccc3n2C)n(C)c2ccccc12` , is 15.6

IC50 recorded for this compound, `COC(=O)c1ccc(C(=O)c2c(SSc3c(C(=O)c4ccc(C(=O)OC)cc4)c4ccccc4n3C)n(C)c3ccccc23)cc1` , is 7.1

* * *

- Protocol Summary: Inhibitory concentration of the against pp60v-src tyrosine kinase obtained from v-src baculovirus-infected insect cells
Readout Type: IC50 (µM)
Just the number in µM, nothing appended.

IC50 recorded for this compound, `O=C(Nc1ccccc1)c1c(SSc2[nH]c3ccccc3c2C(=O)Nc2ccccc2)[nH]c2ccccc12` , is 7.6

IC50 recorded for this compound, `COC(=O)c1ccc(CNC(=O)c2c(SSc3c(C(=O)NCc4ccc(C(=O)OC)cc4)c4ccccc4n3C)n(C)c3ccccc23)cc1` , is 2.5

IC50 recorded for this compound, `COC(=O)c1cccc(NC(=O)c2c(SSc3c(C(=O)Nc4cccc(C(=O)OC)c4)c4ccccc4n3C)n(C)c3ccccc23)c1` , is 5.4

IC50 recorded for this compound, `Cn1c(SSc2c(C(=O)NCC(=O)O)c3ccccc3n2C)c(C(=O)NCC(=O)O)c2ccccc21` , is 1

* * *

- Protocol Summary: Inhibitory concentration of the against pp60v-src tyrosine kinase obtained from v-src baculovirus-infected insect cells
Readout Type: pIC50
// pIC50 here means minus log10 of the molar concentration (mol/L)

pIC50 recorded for this molecule, `Cn1c(SSc2c(C(=O)Nc3cccc(C(=O)O)c3)c3ccccc3n2C)c(C(=O)Nc2cccc(C(=O)O)c2)c2ccccc21` , is 5.28

pIC50 recorded for this molecule, `CN(C)C(=O)c1c(SSc2c(C(=O)N(C)C)c3ccccc3n2C)n(C)c2ccccc12` , is 6.30

* * *

Kindly state IC50 for each of the entries shown.
- Protocol Summary: Inhibitory concentration of the against pp60v-src tyrosine kinase obtained from v-src baculovirus-infected insect cells
Just the number in µM, nothing appended.

IC50 recorded for this compound, `O=C(O)CCc1c(SSc2[nH]c3ccccc3c2CCC(=O)O)[nH]c2ccccc12` , is 5.1

IC50 recorded for this compound, `Cn1c(SSc2c(C(=O)Nc3ccccc3C(=O)O)c3ccccc3n2C)c(C(=O)Nc2ccccc2C(=O)O)c2ccccc21` , is 3.5

IC50 recorded for this compound, `Cn1c(SSc2c(C(=O)NCc3ccccc3)c3ccccc3n2C)c(C(=O)NCc2ccccc2)c2ccccc21` , is 8

IC50 recorded for this compound, `Cn1c(SSc2c(C(N)=O)c3ccccc3n2C)c(C(N)=O)c2ccccc21` , is 0.8

IC50 recorded for this compound, Cn1c(SSc2c(C(=O)NCC(O)CO)c3ccccc3n2C)c(C(=O)NCC(O)CO)c2ccccc21 (stereo not drawn) , is 22.5

IC50 recorded for this compound, `O=C(NCc1ccccc1)c1c(SSc2[nH]c3ccccc3c2C(=O)NCc2ccccc2)[nH]c2ccccc12` , is 16.3

IC50 recorded for this compound, `Cn1c(SSc2c(C(=O)Nc3ccc(C(=O)O)cc3)c3ccccc3n2C)c(C(=O)Nc2ccc(C(=O)O)cc2)c2ccccc21` , is 4.3

IC50 recorded for this compound, `COC(=O)c1ccc(NC(=O)c2c(SSc3c(C(=O)Nc4ccc(C(=O)OC)cc4)c4ccccc4n3C)n(C)c3ccccc23)cc1` , is 4.2

* * *

Kindly state pIC50 for each of the entries shown.
- Protocol Summary: Inhibitory concentration of the against pp60v-src tyrosine kinase obtained from v-src baculovirus-infected insect cells
pIC50: −log10 of the molar value.

pIC50 recorded for this molecule, Cc1c(SSc2c(C)c3ccccc3n2C)n(C)c2ccccc12 [di(1,3-dimethyl-1H-2-indolyl) disulfide] , is < 4.30

pIC50 recorded for this molecule, `CCn1c(SSc2c(C(=O)Nc3ccccc3)c3ccccc3n2CC)c(C(=O)Nc2ccccc2)c2ccccc21` , is < 4.00

pIC50 recorded for this molecule, c1ccc(-c2c(SSc3[nH]c4ccccc4c3-c3ccccc3)[nH]c3ccccc23)cc1 [di(3-phenyl-1H-2-indolyl) disulfide] , is < 4.00
